All values here come from ChEMBL document CHEMBL1151877.

tested on: Human immunodeficiency virus 1; assay: Antiviral activity against VSV-g-pseudotyped HIV1 assessed as inhibition of viral infection in human HOS cells pretreated for 3 hrs before viral infection by luciferase reporter gene assay; format: functional, organism-based; details: Human immunodeficiency virus 1, HOS
Recorded log10 of EC50 by entry
For clarity, the numbers are log10 values of EC50 expressed in nM.

- substance_smiles: "O=C1c2ccc(O)c(O)c2C(=O)N1Cc1cccc(I)c1"
  tested_target: "Human immunodeficiency virus 1"
  log10 of EC50: 3.89
- substance_smiles: "O=C1c2ccc(O)c(O)c2C(=O)N1Cc1ccccc1"
  tested_target: "Human immunodeficiency virus 1"
  log10 of EC50: 4.05
- substance_smiles: "O=C1c2ccc(O)c(O)c2C(=O)N1Cc1cccc(Cl)c1F"
  tested_target: "Human immunodeficiency virus 1"
  log10 of EC50: 3.44
- substance_smiles: "O=C1c2ccc(O)c(O)c2C(=O)N1Cc1cccc(Cl)c1"
  tested_target: "Human immunodeficiency virus 1"
  log10 of EC50: 3.62
- substance_smiles: "O=C1c2c(ccc(O)c2O)CN1Cc1ccc(Cl)c(Cl)c1"
  tested_target: "Human immunodeficiency virus 1"
  log10 of EC50: 3.52

Using the record for O=C1c2ccc(O)c(O)c2C(=O)N1Cc1cccc(Br)c1 , report its log10 of EC50.
3.58

Using the record for O=C1c2ccc(O)c(O)c2C(=O)N1Cc1ccc(F)c(Cl)c1 , report its log10 of EC50.
3.45

Using the record for O=C1c2ccc(O)c(O)c2C(=O)N1Cc1ccc(F)cc1 , report its log10 of EC50.
2.93
